src = PubChem BioAssay (NCI)

- Test system: NCI-H226 lung
- test-description: NCI tumour cell line growth inhibition, 48 h
assay-readout: GI50

# smiles-record, GI50
measured = [
    ("C#C[C@@]1(O)[C@@H](CO)O[C@@H](n2cc(Br)c3c(Cl)ccnc32)[C@@H]1O", "1.08 µM"),
    ("c1ccc(-c2[nH]ncc2-c2ccnc(-c3ccc(OCCN4CCOCC4)cc3)c2)nc1", "> 25 µM"),
]

For each listed entry, give its GI50.
1. O=C(Nc1ccncc1)C(=O)c1cn(S(=O)(=O)c2cccc(Cl)c2)c2ccccc12
2. C[C@@H](Nc1cc(F)cc(F)c1)c1cc(C(=O)N(C)C)cc2c(=O)cc(N3CCOCC3)oc12
3. Nc1[nH]nc2nc(-c3cc(Cl)ccc3Cl)cc(-c3ccc(F)cc3)c12

1: 13.6 µM; 2: > 88.2 µM; 3: 22.6 µM

###

Field: TGI. Provide a value for each of the compounds that follow.
- Test system: A549 NSCLC
- test-description: NCI tumour cell line growth inhibition, 48 h

# compound, TGI
measured = [
    ("CNc1cc([N+](=O)[O-])ccc1C(=O)N1CCC[C@H]1CO", "> 100 µM"),
    ("N#C/C(=C\\c1c(O)cc(O)cc1O)C(N)=O", "> 100 µM"),
    ("COc1cccc(NC(=O)CSc2nnc(Cc3ccccc3)o2)c1", "> 100 µM"),
]

List the reported TGI of each compound below.
1. CC(C)(C)OC(=O)N(O)[C@@H]1CC[C@H](n2cnc3c(N)ncnc32)C1
2. N=c1oc2ccccc2cc1C(=O)Nc1cccc2ccccc12
3. C=CCCCCCCCCCP(=O)(c1ccccc1)c1ccc2c(c1)OCCOCCOCCOCCO2 (stereo unspecified)

> 100 µM
> 100 µM
28.1 µM

Your task in this section: give TGI for each listed record.
1. O=C(/C=C/c1ccc(Cl)c(Cl)c1)c1ccccc1Cl
2. Cc1ccc(/C=N/NC(=O)c2ccccc2Oc2ccccc2)o1
3. O=c1nc2sc3ccccc3c(=O)n2[nH]1

["31.6 µM", "> 100 µM", "> 100 µM"]

# batch size: 2; output TGI per entry
1. N#Cc1c(Cl)cc(C#N)n2c1nc1ccccc12
2. NS(=O)(=O)c1nnc(NS(=O)(=O)c2ccccc2[N+](=O)[O-])s1

1: 22.2 µM; 2: > 100 µM

###

- Test system: OVCAR-4 ovarian
- test-description: NCI tumour cell line growth inhibition, 48 h; in the data active = GI50 below about 0.43 µM; inactive = the rest
Mark one answer only. Choices: active, inactive

Solved entries (count: 3):
# molecule, cat
data = [
    ("O=C1/C(=C\\c2ccc(F)cc2)CN(C(=O)c2ccccc2F)C/C1=C\\c1ccc(F)cc1", "inactive"),
    ("CCOc1cc(-c2nncn2C)ccc1Nc1ncc2cc(C)nc(NCC(C)(C)C)c2n1", "inactive"),
    ("Cc1nc2sc(C(=O)Nc3cccc(Br)c3C)c(N)c2cc1C(O)c1ccccc1 (centres undefined)", "active"),
]

// return assay outcome for `NC(=O)c1c(NC(=O)c2cccs2)sc2c1CCC(=O)C2`
inactive

###

- Test system: RXF 393 renal
- test-description: NCI tumour cell line growth inhibition, 48 h
assay-readout: TGI (µM)
Numbers only, in µM.

# compound, TGI, µM
data = [
    ("N#Cc1c2ccccc2c(Cc2ccc3c(c2)OCCOCCOCCOCCOCCO3)c2ccccc12", 7.94),
    ("Cc1sc(C(=O)c2cncnc2N[C@@H]2C[C@H](COS(N)(=O)=O)[C@@H](O)C2)cc1[C@@H]1NCCc2ccc(Cl)cc21", 22),
    ("O=S1SC(=S)C2C=CC=NC21 (stereo not given)", 32.5),
]

// for each compound below, give its TGI
1. CCN(CC)CCNc1ccc2ncn3c4ccc(OC)cc4c(=O)c1c23
2. C/C=C/C(=O)Oc1cccc2cccnc12
3. C=CCn1c2ccccc2c2c3c(c4c5ccccc5n(CC=C)c4c21)C(=O)N(O)C3=O

7.69
41.1
19.6

Respectfully, I request TGI for each entry included below.
1. C[C@@H](Nc1cc(F)cc(F)c1)c1cc(C(=O)N(C)C)cc2c(=O)cc(N3CCOCC3)oc12
2. CC1=CC(=O)N(c2cccc3c(N4C(=O)C=C(C)C4=O)cccc23)C1=O
3. N#Cc1c(Cl)cc(C#N)n2c1nc1ccccc12
4. O=C1CSC(c2ccccc2O)N1c1ccc2c(c1)Oc1c(Cl)c3c(c(Cl)c1=N2)Oc1cc(N2C(=O)CSC2c2ccccc2O)ccc1N=3 (stereo not given)
5. CN(C)c1ccc(C=Nc2ccc(-c3nc4ccccc4s3)cc2)cc1
6. CC(=Nc1ccc(N(C)C)cc1)c1ccccc1
7. COC(=O)[C@]12CC[C@@H](C)[C@H](C)[C@@H]1C1=CC[C@@H]3[C@@]4(C)C(C=O)=C[C@@](C)(CO)[C@@H]4[C@H](O)C[C@@]3(C)[C@]1(C)CC2
8. CCN1CCN(c2nc(C)cc(NCc3cc(Nc4ccnc5cc(Cl)ccc45)ccc3F)n2)CC1

1: 0.973; 2: 4.4; 3: 28.7; 4: 44.5; 5: 52.2; 6: 20.6; 7: 8.75; 8: 3

Please state TGI for every compound in the list that follows.
1. CN(C)[C@@H]1C(=O)C(C(=O)NCNc2nc3n[nH]nc3c(=O)[nH]2)=C(O)[C@@]2(O)C(=O)C3=C(O)c4c(O)cccc4[C@@](C)(O)[C@H]3C[C@@H]12
2. COc1ccc2c(c1)C(=Nc1ccc(F)c(Cl)c1)c1c-2c(Nc2ccc(F)c(Cl)c2)nc2ccccc12

5.37
37.1

For each of the items listed, what is its TGI?
1. C/C=C(\N=C=S)C(=O)OC1C(COC(C)=O)OC([C@]2(O)CC(=O)C(=N)C(C(=O)O)=C2O)C(O)C1OC1CC(OC)C(O)([C@@H](C)OC(=O)[C@@H](C)CC)C(C)O1 (stereo not given in full)
2. Nc1ccccc1C#C/C=C\C#Cc1ccccc1C#CCO
3. CCCCC(=O)N(c1ccc(Nc2c3ccccc3nc3cc([N+](=O)[O-])ccc23)cc1)S(C)(=O)=O

15.5
32.1
27.8
